Task for the reader: assign each of the following molecules its reported remaining at 5 min, 1 μM.
assay: Metabolic stability in human liver microsomes; format: in vitro ADME; details: pooled human liver microsomes, pH 7.4; human liver microsomes, 1 μM, 5 min
Output should be the measured figure followed by the unit it is expressed in.

Summary for this molecule, F[C@@H]1CCN(c2ccc(-c3ccc4sc(-c5cncs5)cc4n3)cn2)C1 [LMD-006] : remaining at 5 min, 1 μM is 39.6%

Summary for this molecule, F[C@@H]1CCN(c2ccc(-n3ncc4sc(-c5cncs5)cc43)cn2)C1 [LMD-046] : remaining at 5 min, 1 μM is 3.43%

Summary for this molecule, F[C@@H]1CCN(c2ccc(-n3cc4sc(-c5cccnc5)cc4n3)cn2)C1 [LMD-032] : remaining at 5 min, 1 μM is 53.3%

Summary for this molecule, O=C1NCc2nc(-c3cnc(N4CC[C@@H](F)C4)cn3)ccc21 [LMD-022] : remaining at 5 min, 1 μM is 92.4%

Summary for this molecule, F[C@@H]1CCN(c2cnc(-c3csc4ccc(-c5cccnc5)nc34)cn2)C1 [LMD-044] : remaining at 5 min, 1 μM is 45.7%

====

Task for the reader: assign each of the following compounds its reported remaining activity at 0.3 µM.
biological target: α-synuclein (α-syn) aggregates in PD brain homogenates (Homo sapiens, UniProt P37840); construct: Anterior cingulate cortex tissue from a Parkinson’s disease (PD) case; tissue Banner Sun Health Research Institute (Dr. Thomas Beach); host or cells: post-mortem human PD anterior cingulate cortex homogenate; test: Two point screening assay (30 nM and 300 nM) vs [3H]asyn-44 in human PD brain homogenates; type: binding; settings: 300 nM competitor
Could you give me the number in %? Just the number is fine.

Summary for this compound, F[C@@H]1CCN(c2cc(-n3cc4sc(-c5cccnc5)cc4n3)ncn2)C1 : remaining activity at 0.3 µM is 2

Summary for this compound, F[C@@H]1CCN(c2ccc(-n3cc4sc(-c5cccnc5)cc4n3)cn2)C1 : remaining activity at 0.3 µM is 25

Summary for this compound, O=C1NCc2nc(-c3cnc(N4CC[C@@H](F)C4)cn3)ccc21 : remaining activity at 0.3 µM is 15

Summary for this compound, F[C@@H]1CCN(c2cnc(-c3csc4ccc(-c5cccnc5)nc34)cn2)C1 : remaining activity at 0.3 µM is 4

Summary for this compound, F[C@@H]1CCN(c2cnc(-c3ccc4scc(-c5cccnc5)c4n3)cn2)C1 : remaining activity at 0.3 µM is 13

Summary for this compound, FC1CCN(c2cnc(-n3cc4sc(-c5cccnc5)cc4n3)cn2)CC1 : remaining activity at 0.3 µM is 4

Summary for this compound, F[C@@H]1CCN(c2ccc(-c3ccc4sc(-c5cncs5)cc4n3)cn2)C1 : remaining activity at 0.3 µM is 2

Summary for this compound, F[C@@H]1CCN(c2ccc(-n3ncc4sc(-c5cncs5)cc43)cn2)C1 : remaining activity at 0.3 µM is 8

====

Task for the reader: assign each of the following molecules its reported % disappearance at 30 minutes relative to time zero.
assay: Metabolic stability in human liver microsomes; type: in vitro ADME; settings: human liver microsomes, 30 min
Could you give me the number in %? Just the number is fine.

Summary for this molecule, O=C1NCc2nc(-c3cnc(N4CC[C@@H](F)C4)cn3)ccc21 : % disappearance at 30 minutes relative to time zero is 24.6

Summary for this molecule, F[C@@H]1CCN(c2cc(-n3cc4sc(-c5cccnc5)cc4n3)ncn2)C1 : % disappearance at 30 minutes relative to time zero is 94.4

Summary for this molecule, FC1CCN(c2cnc(-n3cc4sc(-c5cccnc5)cc4n3)cn2)CC1 : % disappearance at 30 minutes relative to time zero is 69.7

Summary for this molecule, F[C@@H]1CCN(c2ccc(-c3ccc4sc(-c5cncs5)cc4n3)cn2)C1 : % disappearance at 30 minutes relative to time zero is 95.7

Summary for this molecule, F[C@@H]1CCN(c2cnc(-c3ccc4scc(-c5cccnc5)c4n3)cn2)C1 : % disappearance at 30 minutes relative to time zero is 86.5

Summary for this molecule, F[C@@H]1CCN(c2ccc(-n3cc4sc(-c5cccnc5)cc4n3)cn2)C1 : % disappearance at 30 minutes relative to time zero is 95.0

Summary for this molecule, F[C@@H]1CCN(c2cnc(-c3csc4ccc(-c5cccnc5)nc34)cn2)C1 : % disappearance at 30 minutes relative to time zero is 96.3
